# System: SF-295
# EXPERIMENTAL DETAILS: NCI tumour cell line growth inhibition, 48 h
Activity calls are given as the source filed them. Rule as the data show it: active = GI50 up to about 1.1 µM and inactive = higher.
PROPERTY MEASURED: GI50

C=C(C)[C@@]1(O)CCC[C@H]1NC(=O)OC(C)(C)C; > 100 µM (inactive)
Cc1ccc(O)c(-c2cc(-c3ccccc3)nc(/N=C\c3ccccc3)n2)c1; 36.1 µM (inactive)

Value (GI50, SF-295) for record CCSc1s/c(=N/c2ccc(/N=c3\sc(C)c(SC)s3)cc2)sc1-c1ccc(C)cc1 = > 100 µM (inactive)

GI50 value, target or system SF-295, for CC(C)c1cc(CN(C)C)c(O)c(C(C)(C)C)c1 : 19 µM (inactive)

====

# System: A498
# EXPERIMENTAL DETAILS: NCI tumour cell line growth inhibition, 48 h
The source made the active and inactive calls. Cut-off read from the data, not from the text of the source: active = GI50 up to about 1.1 µM and inactive = higher.
Would you mind answering with one of these outcomes? Yes for active, No for inactive

Solved entries (count: 10):
CC(C)(C)OC(=O)/C=C/C(=O)O/C=C/[N+](=O)[O-]; No
COc1cc(/C=[N+](\[O-])c2ccccc2Cl)ccc1OC(=S)S; No
CC(C)OC(=O)c1ccc(CCc2cc(O)c(Br)cc2O)cc1; No
COc1cc2c(cc1OCCCC(=O)Nc1cc(C(=O)Nc3cc(C(=O)Nc4cc(C(=O)NCCCN(C)C)n(C)n4)n(C)n3)n(C)n1)N=CC1CCCN1C2=O (centres undefined); No
CCNC(=O)COc1ccc(Br)cc1Br; No
C[C@]12CCC(=O)C=C1CC[C@@H]1[C@@H]2CC[C@]2(C)C(=O)[C@H](n3ccnc3)C[C@@H]12; No
C=CCOCn1cnc2c(=O)[nH]c(N)nc21; No
COc1cc(C)c(C)c(OC(=O)c2c(C)c(C)c(OC)c(C)c2OC)c1C; No
O=C1Nc2ccc(Br)cc2/C1=N/c1ccc(Cl)cc1; No
O=C(NCCCCCN1CCC2(CCCCC2)CC1)C(C1CCCCC1)C1CCCCC1; No

Ask | Identify the outcome logged in this assay for the compound shown: COc1c(OC(C)=O)cc2c(OC(C)=O)c1CC(C)CC(OC)C(O)C(C)/C=C(\C)C(OC(N)=O)C(OC)/C=C\C=C(/C)C(=O)N2 (centres undefined)
Reply | No

Ask | Write down the call the test reported for this compound. Item: COc1nc(NC2OCC(O)C(O)C2O)c(NC2OCC(O)C(O)C2O)c(=O)n1C (centres undefined)
Reply | No

Ask | Hi, do you know how O=S(=O)(O)c1cc(/N=N/c2cc(S(=O)(=O)O)c3cccnc3c2O)ccc1/C=C/c1ccc(/N=N/c2cc(S(=O)(=O)O)c3cccnc3c2O)cc1S(=O)(=O)O came out in this test?
Reply | No

Ask | Could you please tell me the result logged for Oc1cc(-c2cccs2)nc2cc3c(cc12)OCO3 in this assay?
Reply | No

====

# Tested on: HCT-116
# EXPERIMENTAL DETAILS: NCI tumour cell line growth inhibition, 48 h
Activity calls are given as the source filed them. Rule as the data show it: active = GI50 up to about 1.1 µM and inactive = higher.
PROPERTY MEASURED: GI50

Brc1cccc(/C=C/CN2CCN(CCOC(c3ccccc3)c3ccccc3)CC2)c1; 13.7 µM (inactive)
CC1CC2(CC[C@@H]1O)OCCO2 (some centres undefined); > 100 µM (inactive)
CC(=N\N=C\c1ccccn1)/C(C)=N/N=C(C)/C(C)=N/N=C/c1ccccn1; > 100 µM (inactive)

// moving on: another record for GI50
Entry C=CC[C@H](C)CCC(=O)N1[C@H]2CC3CC[C@@]2(CS1(=O)=O)C3(C)C , tested on HCT-116, has a reported GI50 of 48 µM (inactive)

====

# Test system: U-251
# EXPERIMENTAL DETAILS: NCI tumour cell line growth inhibition, 48 h
Active and inactive are the calls of the source. Cut-off read from the data, not from the text of the source: active = GI50 up to about 1.1 µM and inactive = higher.
PROPERTY MEASURED: GI50

CC(C)c1ccc(/C=C2\CSCC3=C2N=C(S)NC3c2ccc(C(C)C)cc2)cc1 (stereo not drawn); 85.1 µM (inactive)
COc1ccc(Oc2cnn(C(Br)(Br)C(C)=O)c(=O)c2Br)cc1; 13.9 µM (inactive)
CC(C)(C)c1ccc2c(c1)OP1(Oc3cccc4cccnc34)(O2)Oc2ccc(C(C)(C)C)cc2O1; 7 µM (inactive)
CCOC(=O)C1CCCCc2sc(N)c(C#N)c21 (stereo not drawn); > 100 µM (inactive)
CN(C(=O)[C@H](NC(=O)OCc1ccccc1)c1ccccc1)C1CCCCC1N1CCCC1 (stereo partly drawn); > 100 µM (inactive)

Record COc1cc2c(cc1OC)C(CC1=C(c3ccccc3)CN3CCc4cc(OC)c(OC)cc4C3C1)NCC2 (stereo not drawn) / U-251, GI50 recorded as 15.2 µM (inactive)

// GI50 (U-251) for C[C@]12CCC(=O)C=C1CC[C@@H]1[C@@H]2CC[C@]2(C)C(=O)[C@H](n3ccnc3)C[C@@H]12 = > 100 µM (inactive)

====

# Test system: T47D
# EXPERIMENTAL DETAILS: NCI tumour cell line growth inhibition, 48 h
The source made the active and inactive calls. No stated cut-off is given here; in the data, active = GI50 up to about 1.1 µM and inactive = higher.
Your answer must be one of the following: Y = active, N = inactive

Ask | Record lookup: outcome of this test for O=c1oc2ccccc2cc1-c1nc2ccccc2s1 ?
Reply | N

Ask | Could you check what this test reported for N#CC(C#N)=CNCCN1CCN(C=C(C#N)C#N)CC1 ?
Reply | N

====

# System: SK-MEL-28
# EXPERIMENTAL DETAILS: NCI tumour cell line growth inhibition, 48 h
The source made the active and inactive calls. Cut-off read from the data, not from the text of the source: active = GI50 up to about 1.1 µM and inactive = higher.
Thanks in advance; please answer with one of these: Yes = active, No = inactive

Cc1cccc(C)c1NC(=O)C(=O)CC(=O)CO; No
Cc1c(N)nc([C@H](CC(N)=O)NC[C@H](N)C(N)=O)nc1C(=O)N[C@H](C(=O)N[C@H](C)[C@@H](O)CC(=O)N[C@H](C(=O)NC(O[C@@H]1O[C@@H](C)[C@@H](N)[C@@H](O)[C@H]1O)C(O)c1nc(-c2nc(C(=O)NCCCCN)cs2)cs1)[C@@H](C)O)[C@@H](O[C@@H]1O[C@@H](CO)[C@@H](O)[C@H](O)[C@@H]1O[C@H]1O[C@H](CO)[C@@H](O)[C@H](OC(N)=O)[C@@H]1O)c1c[nH]cn1 (some centres not stated); No
Cn1c(=S)sc2nc3ccccc3n2c1=S; No
CCCCOCCOC1=C(Cl)C(=O)c2c(O)ccc(O)c2C1=O; Yes

Ask | In this assay, the call recorded for Nc1ccc2c(c1)C(=O)c1c(F)cccc1-2 was what?
Reply | No

Ask | # lookup: test call for NC(Cc1c[nH]c2ccc([N+](=O)[O-])cc12)C(=O)O (configuration not stated)
Reply | No

Ask | # outcome recorded in this test, key = COc1c2c(cc3nc4ccccc4nc13)CCC(C(C)(C)O)C2 (configuration not stated)
Reply | No

====

# Tested on: UACC-62
# EXPERIMENTAL DETAILS: NCI tumour cell line growth inhibition, 48 h
Calls of active or inactive are those of the source. No stated cut-off is given here; in the data, active = GI50 up to about 1.1 µM and inactive = higher.
// classify into active, inactive

Answered examples (5):
COCN(C)c1nc(N(C)C)nc(N(C)C)n1; inactive
CON(C)c1nc(N)c(C#N)c(C#N)c1C#N; inactive
O=C(NC(Cc1ccc(I)cc1)C(=O)O)c1cccc(Br)c1 (stereo not drawn); inactive
Cc1cnc2c(c1)C(=O)C1=C(C2=O)C2OC(=O)CC2OC1(C)C (stereo not drawn); active
COC(=O)C1=C(OC(=O)/C(=C/c2ccc(Cl)cc2Cl)c2ccc(Cl)cc2Cl)C(C(=O)OC)[C@@]2(O)[C@@H](C(=O)OC)[C@H](C)C[C@@H]1[C@@H]2C(=O)OC (stereo partly drawn); inactive

Attention now turns to another entry.
Ask | Tell me the recorded outcome of this test for Cc1c(Cl)ccc2c1NC(=O)C2(O)CC(=O)c1ccc(Cl)cc1 (stereo not drawn) .
Reply | inactive

====

# Tested on: CCRF-CEM
# EXPERIMENTAL DETAILS: NCI tumour cell line growth inhibition, 48 h
Activity calls are given as the source filed them. No stated cut-off is given here; in the data, active = GI50 up to about 1.1 µM and inactive = higher.
Entry note: the call must match one of true (1) for active, false (0) for inactive

These recorded examples may help you get a feel for the data.
CCCCCCc1cc(C(=O)Nc2cccc(C(F)(F)F)c2)nc(N)n1; false (0)
CC(C)OP(=O)(OC(C)C)/C(=N/Nc1ccc([N+](=O)[O-])cc1)NCCN/C(=N\Nc1ccc([N+](=O)[O-])cc1)P(=O)(OC(C)C)OC(C)C; false (0)
CCCCNC(=S)N/N=C/c1cccc(C)n1; false (0)

Ask | Could you check what this test reported for O=C1NC(=O)C23C(=O)NC(=O)C12C1C=CC3CC1 (configuration not stated) ?
Reply | false (0)

Ask | Please share the test call associated with COc1ccc2nc(NC(=O)C(=O)NNC(=O)c3ccncc3)sc2c1 .
Reply | false (0)

Ask | What outcome does the record of this test show for CS(=O)(=O)OCCn1cnc2nc(NC(=O)c3ccccc3)[nH]c(=O)c21 ?
Reply | false (0)

Ask | Test call for this compound, please: Cn1c([C@H](C#N)c2ncccc2[N+](=O)[O-])nc2ccccc21
Reply | true (1)
